- Subject Of Test: IGF-1R (human cytoplasmic domain fused with GST) (Homo sapiens, UniProt P08069)
- Construct: The human cytoplasmic domain of IGF-1R was cloned by fusion with glutathione S-transferase (GST); made in house; host or cells: SF21 insect cells (baculovirus, pFastBac-GST)
- Sequence (P08069 960-1367 limits assumed): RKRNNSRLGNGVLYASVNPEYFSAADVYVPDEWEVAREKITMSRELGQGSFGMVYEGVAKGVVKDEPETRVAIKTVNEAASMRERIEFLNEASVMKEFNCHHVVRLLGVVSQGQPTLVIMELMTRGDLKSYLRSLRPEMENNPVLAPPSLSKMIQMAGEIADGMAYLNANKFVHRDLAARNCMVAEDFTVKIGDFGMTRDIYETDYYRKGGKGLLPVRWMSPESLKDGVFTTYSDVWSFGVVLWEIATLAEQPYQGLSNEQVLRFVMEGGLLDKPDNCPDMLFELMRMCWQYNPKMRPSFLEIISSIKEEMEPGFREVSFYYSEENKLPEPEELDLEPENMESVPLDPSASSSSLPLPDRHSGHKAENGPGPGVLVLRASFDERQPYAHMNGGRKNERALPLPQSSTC
- Assay: Kinase IGF-1R test (Test A): inhibition of autophosphorylation of the enzyme, HTRF
- Type: biochemical
- Condition Parameters: preincubation with enzyme 30 minutes; 120 μM ATP; read-out: Test A 30′ IC50
List of IC50 values.

CC(C)(C)c1ccc(N2C(=O)N(Cc3ccnc(NC(=O)NCCCN4CCCC4)c3)C(C)(C)C2=O)cc1 = 0.01 to 0.1 µM
CC(C)(C)c1ccc(N2C(=O)N(Cc3ccnc(Nc4cncc(F)c4)c3)C(C)(C)C2=O)cc1 [Example 31A] = 0.01 to 0.1 µM
CC(C)(C)c1ccc(N2C(=O)N(Cc3ccnc(Nc4ccc(CN5CCCC5)cc4)c3)C(C)(C)C2=O)cc1 [Example 31F] = 0.01 to 0.1 µM
CC(C)(C)c1ccc(N2C(=O)N(Cc3ccnc(Nc4cccc(CCN5CCCC5)c4)c3)C(C)(C)C2=O)cc1 [Example 31H] = 0.01 to 0.1 µM

# evaluate next
Request: Can you share its IC50? I mean this compound: CC(C)(C)c1ccc(N2C(=O)N(Cc3ccnc(NC4CC4)c3)C(C)(C)C2=O)cc1 [Example 31J]
Response: 0.01 to 0.1 µM

* * *

- Subject Of Test: IGF-1R (human cytoplasmic domain fused with GST) (Homo sapiens)
- Construct: The human cytoplasmic domain of IGF-1R was cloned by fusion with glutathione S-transferase (GST); made in house; host or cells: SF21 insect cells (baculovirus, pFastBac-GST)
- Assay: Kinase IGF-1R test (Test A): inhibition of autophosphorylation of the enzyme, HTRF
- Assay type: biochemical
- Condition Parameters: preincubation with enzyme 30 minutes; 120 μM ATP; read-out: Test A 30′ IC50
- Protocol: A) Experimental Protocol for the Kinase IGF-1R Test: The inhibitory activity of the compounds on IGF1R is determined by measuring the inhibition of autophosphorylation of the enzyme using a time-resolved fluorescence test (HTRF). The human cytoplasmic domain of IGF-1R was cloned by fusion with glutathione S-transferase (GST) in the baculovirus expression vector pFastBac-GST. […] The specific long-lasting signal of XL-665 is measured in a GENios Pro TECAN plate counter. […]
List of IC50 values.

CCCCNC(=O)Nc1cc(CN2C(=O)N(c3ccc(C(C)(C)C)cc3)C(=O)C2(C)C)ccn1 = 10 to 100 nM
CC(C)(C)c1ccc(N2C(=O)N(Cc3ccnc(NC(=O)NC4CCCC4)c3)C(C)(C)C2=O)cc1 = 10 to 100 nM
CC(C)(C)c1ccc(N2C(=O)N(Cc3ccnc(NC(=O)N4CCC4)c3)C(C)(C)C2=O)cc1 = 10 to 100 nM
CC(C)(C)c1ccc(N2C(=O)N(Cc3ccnc(Nc4ccc(Cl)nc4)c3)C(C)(C)C2=O)cc1 [Example 31L] = > 100 nM
CC(C)(C)c1ccc(N2C(=O)N(Cc3ccnc(NC(=O)Nc4cccnc4)c3)C(C)(C)C2=O)cc1 [Example 31O] = > 100 nM
CC(C)(C)c1ccc(N2C(=O)N(Cc3ccnc(NC(N)=O)c3)C(C)(C)C2=O)cc1 [Example 31P] = 10 to 100 nM

Request: Can you share its IC50? I mean this molecule: "CC(C)(C)c1ccc(N2C(=O)N(Cc3ccnc(NC(=O)NCCCCN4CCCC4)c3)C(C)(C)C2=O)cc1"
Response: 10 to 100 nM

Request: And CC(C)(C)c1ccc(N2C(=O)N(Cc3ccnc(Nc4cccnc4Cl)c3)C(C)(C)C2=O)cc1 [Example 31K] ?
Response: 10 to 100 nM

Request: And CC(C)NCC(=O)N1CC(C)(C)c2ccc(N3C(=O)N(Cc4ccnc(Nc5cccnc5)c4)C(C)(C)C3=O)cc21 [Example 31D] ?
Response: > 100 nM

Origin of measurements: patent US7935819B2
